# System: ZR-75-1 cells
# assay.remarks: Proliferation assay ZR-75-1 (Alamar Blue, 144 h)
# Assay type: cell-based
# measurement.conditions: Homo sapiens, ZR-75-1, 144 h, arithmetic mean, read-out: ZR75-1 proliferation assay, EC50 [M] (arithmetic mean)
The entries below are paired with their reported EC50.
Form entry: value (M) — number only.

Some compounds with known EC50 results, for comparison:
{"structure.notation": "CC(C)Oc1ccccc1S(=O)(=O)NC(=O)c1cc2c(F)cc(N(C)C)cc2o1", "tested.target": "ZR-75-1 cells", "value.units": "M", "EC50": "3.7e-08"}
{"structure.notation": "Cc1ccc(S(=O)(=O)NC(=O)c2cc3ccc(N(C)C)cc3o2)c(-c2ccccc2)c1", "tested.target": "ZR-75-1 cells", "value.units": "M", "EC50": "1.33e-07"}
{"structure.notation": "Cc1ccc(S(=O)(=O)NC(=O)c2cc3ccc(N(C)C)cc3o2)cc1", "tested.target": "ZR-75-1 cells", "value.units": "M", "EC50": "3.89e-07"}
{"structure.notation": "CN(C)c1ccc2cc(C(=O)NS(=O)(=O)c3ccccc3OCCNC(=O)OC(C)(C)C)oc2c1", "tested.target": "ZR-75-1 cells", "value.units": "M", "EC50": "6.03e-07"}
{"structure.notation": "CCc1ncnc(OC)c1S(=O)(=O)NC(=O)c1cc2ccc(N(C)C)cc2o1", "tested.target": "ZR-75-1 cells", "value.units": "M", "EC50": "8.31e-07"}

Pending compound:
Ask | May I ask what EC50 has been recorded for `CN(C)c1ccc2cc(C(=O)NS(=O)(=O)c3ccc(Br)cc3OC(F)(F)F)oc2c1` ?
Reply | 9.57e-07
